Ref: patent US7713969B2

- Test system: MDA-MB-231
- measurement-description: Cell viability MTS assay
- Format: cell-based, human
- condition-details: Homo sapiens, MDA-MB-231, 72 hours with compound
pIC50: −log10 of the molar value.
metric-name: pIC50

INSERT INTO assay_data (compound, metric_name, value_measured) VALUES
  ('O=C1NC(=O)C(c2cn3c4c(cccc24)CCC3)=C1c1ccccc1C(F)(F)F', 'pIC50', 4.21),
  ('O=C1NC(=O)C(c2cn3c4c(cccc24)CCC3)=C1c1ccccc1', 'pIC50', 4.09),
  ('O=C1NC(=O)C(c2cn3c4c(cccc24)CCC3)=C1c1cc2ccccc2s1', 'pIC50', 4.10),
  ('O=C1NC(=O)C(c2cn3c4c(cccc24)CCC3)=C1c1ccccc1Br', 'pIC50', 4.52),
  ('O=C1NC(=O)[C@@H](c2cn3c4c(cccc24)CCC3)[C@H]1c1cccc(Cl)c1 (racemic)', 'pIC50', 4.81),
  ('O=C1NC(=O)C(c2cn3c4c(cccc24)CCC3)C1c1c[nH]c2ccccc12 (single isomer, unassigned; (-))', 'pIC50', 5.66),
  ('O=C1NC(=O)[C@@H](c2cn3c4c(cccc24)CCC3)[C@H]1c1c[nH]c2ccccc12 (racemic)', 'pIC50', 5.39),
  ('O=C1NC(=O)[C@@H](c2cn3c4c(cccc24)CCC3)[C@@H]1c1ccc(Br)cc1 (racemic)', 'pIC50', 4.30);

I: O=C1NC(=O)[C@@H](c2cn3c4c(cccc24)CCC3)[C@@H]1c1c(Cl)cccc1Cl (racemic)
II: O=C1NC(=O)C(c2cn3c4c(cccc24)CCC3)=C1c1ccc(F)cc1
Would you kindly point out which of I and II has the smaller pIC50 figure? Write down the label of the entry you select.
II
(II: 4.24, I: 5.12)

a: O=C1NC(=O)[C@@H](c2cn3c4c(cccc24)CCC3)[C@@H]1c1ccc(Cl)cc1Cl (racemic)
b: O=C1NC(=O)[C@@H](c2cn3c4c(cccc24)CCC3)[C@@H]1c1cccc(O)c1 (racemic)
c: O=C1NC(=O)[C@@H](c2cn3c4c(cccc24)CCC3)[C@@H]1c1ccccc1Cl (racemic)
List these items ordered by pIC50, big to small. Please list each label once, in the requested order.
c, a, b
(c: 5.34, a: 4.83, b: 4.18)

A: O=C1NC(=O)[C@@H](c2cn3c4c(cccc24)CCC3)[C@@H]1c1ccc(OC(F)(F)F)cc1 (racemic)
B: Cn1cc([C@@H]2C(=O)NC(=O)[C@H]2c2cn3c4c(cccc24)CCC3)c2ccccc21 (racemic)
C: CN(C)CC(=O)OCN1C(=O)[C@@H](c2c[nH]c3ccccc23)[C@H](c2cn3c4c(cccc24)CCC3)C1=O (racemic)
Order the records so the highest pIC50 appears first and the lowest last. // format: requested-order list of labels
C, A, B

A: O=C1NC(=O)C(c2cn3c4c(cccc24)CCC3)=C1c1ccccc1Cl
B: O=C1NC(=O)[C@@H](c2cn3c4c(cccc24)CCC3)[C@@H]1c1c[nH]c2ccc(-c3cccc4ccccc34)cc12 (racemic)
Returns: the label, A or B , whose recorded pIC50 is the lower number. Pick one and reply with its label.
B

I: O=C1NC(=O)C(c2cn3c4c(cccc24)CCC3)=C1c1c(Cl)cccc1Cl
II: COc1cccc([C@@H]2C(=O)NC(=O)[C@H]2c2cn3c4c(cccc24)CCC3)c1 (racemic)
Among I and II , whose measured pIC50 is the smaller figure? # answer = label of selected item
I

====

- target-of-assay: UniProtKB P08581
- measurement-description: c-Met inhibition, phospho-c-Met blot with densitometry (Example 83)
- Format: cell-based
- Set-up: whole cell extracts were prepared; endogenous in cells; host or cells: MCF-7, MDA-MB-231, DLD1, HT29, PACA2, PANC-1, NCI-H441
- condition-details: HT-29 cells, 24 hours treatment; read-out: (−)-trans IC50 c-Met Inhibition
metric-name: pIC50
Worth noting: pIC50 values are minus log10 of concentrations stated in mol/L.

Annotate the molecule O=C1NC(=O)C(c2cn3c4c(cccc24)CCC3)C1c1c[nH]c2ccccc12 (single isomer, unassigned; (-)) with its measured pIC50.
6.52

====

Quick list: melting point per entry.

INSERT INTO measurements (compound, value_measured) VALUES
  ('O=C1NC(=O)[C@@H](c2cn3c4c(cccc24)CCC3)[C@@H]1c1cccc(O)c1 (racemic)', '108 to 110 °C'),
  ('COc1cccc([C@@H]2C(=O)NC(=O)[C@H]2c2cn3c4c(cccc24)CCC3)c1 (racemic)', '87 to 91 °C'),
  ('O=C1NC(=O)C(c2cn3c4c(cccc24)CCC3)=C1c1ccc(OCc2ccccc2)cc1', '262 to 265 °C'),
  ('O=C1NC(=O)[C@@H](c2cn3c4c(cccc24)CCC3)[C@@H]1c1ccc(O)cc1 (racemic)', '105 to 107 °C');

Output measured melting point for this item: COc1cccc(C2=C(c3cn4c5c(cccc35)CCC4)C(=O)NC2=O)c1
99 to 101 °C

====

- target-of-assay: c-Met (Homo sapiens, UniProt P08581)
- Sequence (P08581 25-1390): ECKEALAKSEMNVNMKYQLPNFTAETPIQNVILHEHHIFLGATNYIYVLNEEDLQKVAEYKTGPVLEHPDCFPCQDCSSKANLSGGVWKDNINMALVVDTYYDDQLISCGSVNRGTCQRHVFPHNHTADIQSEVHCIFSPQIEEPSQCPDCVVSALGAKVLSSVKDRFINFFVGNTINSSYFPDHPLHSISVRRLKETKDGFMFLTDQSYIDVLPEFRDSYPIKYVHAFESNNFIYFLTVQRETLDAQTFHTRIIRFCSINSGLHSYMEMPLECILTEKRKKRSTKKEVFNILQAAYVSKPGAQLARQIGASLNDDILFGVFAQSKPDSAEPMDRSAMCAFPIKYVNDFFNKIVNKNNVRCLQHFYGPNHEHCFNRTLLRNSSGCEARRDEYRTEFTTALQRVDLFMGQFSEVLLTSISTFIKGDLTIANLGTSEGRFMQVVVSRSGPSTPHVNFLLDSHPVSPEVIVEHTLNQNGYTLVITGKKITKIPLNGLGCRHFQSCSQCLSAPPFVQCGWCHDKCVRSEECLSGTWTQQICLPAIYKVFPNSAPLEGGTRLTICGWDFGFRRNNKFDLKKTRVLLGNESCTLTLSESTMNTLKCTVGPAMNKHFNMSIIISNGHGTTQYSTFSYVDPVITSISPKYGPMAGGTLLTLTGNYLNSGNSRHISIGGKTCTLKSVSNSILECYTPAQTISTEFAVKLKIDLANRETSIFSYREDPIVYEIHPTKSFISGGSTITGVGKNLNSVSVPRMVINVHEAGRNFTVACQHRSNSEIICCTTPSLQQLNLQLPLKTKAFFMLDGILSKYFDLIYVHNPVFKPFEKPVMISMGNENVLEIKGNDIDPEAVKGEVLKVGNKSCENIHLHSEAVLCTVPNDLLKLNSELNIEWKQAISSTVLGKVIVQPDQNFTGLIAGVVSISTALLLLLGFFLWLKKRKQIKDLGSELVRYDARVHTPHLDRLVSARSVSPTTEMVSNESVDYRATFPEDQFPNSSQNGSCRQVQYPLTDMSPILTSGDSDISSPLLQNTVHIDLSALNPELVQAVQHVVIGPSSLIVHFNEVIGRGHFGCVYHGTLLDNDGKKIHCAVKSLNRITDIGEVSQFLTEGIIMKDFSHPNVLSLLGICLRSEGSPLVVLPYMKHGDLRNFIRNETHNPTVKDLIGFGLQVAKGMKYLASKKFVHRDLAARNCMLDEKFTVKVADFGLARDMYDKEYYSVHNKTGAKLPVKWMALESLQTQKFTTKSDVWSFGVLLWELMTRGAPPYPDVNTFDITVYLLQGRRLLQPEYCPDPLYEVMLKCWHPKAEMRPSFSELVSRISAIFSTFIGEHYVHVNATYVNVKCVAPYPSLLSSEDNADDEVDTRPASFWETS
- measurement-description: c-Met inhibition, phospho-c-Met blot with densitometry (Example 83)
- Assay type: cell-based
- Parameters: whole cell extracts were prepared; endogenous in cells; host or cells: MCF-7, MDA-MB-231, DLD1, HT29, PACA2, PANC-1, NCI-H441
- condition-details: PACA2 cells, 24 hours treatment; read-out: (−)-trans IC50 c-Met Inhibition
- Experimental: To determine c-met inhibition, exponentially growing MCF-7 and MDA-MB-231 human breast cancer cells, DLD1 and HT29 human colon cancer cells, PACA2 and PANC-1 human pancreatic cancer cells and NCI-H441 human non-small cell lung cancer cells (H441) were serum starved in 0.5% FBS and treated with increasing amounts of (−)-trans-3-(5,6-dihydro-4H-pyrrolo [3,2,1-ij]quinolin-1-yl)-4(1H-indol-3-yl)pyrrolidine-2,5-dione for 24 hours as indicated. […]
metric-name: IC50 (nM)
Value expressed in nM; do not type the unit.

Note down IC50 recorded for O=C1NC(=O)C(c2cn3c4c(cccc24)CCC3)C1c1c[nH]c2ccccc12 (single isomer, unassigned; (-))
100

====

- Tested on: NCI-H82
- measurement-description: Cell viability MTS assay
- Assay type: cell-based, human
- condition-details: 72 hours with compound
pIC50: −log10 of the molar value.
metric-name: pIC50

Look over these answered cases.
INSERT INTO assay_data (molecule, metric_name, value_measured) VALUES
  ('O=C1NC(=O)[C@@H](c2c[nH]c3ccccc23)[C@H]1c1cn2c3c(cccc13)CCC2', 'pIC50', 5.75),
  ('O=C1NC(=O)[C@@H](c2cn3c4c(cccc24)CCC3)[C@@H]1c1c[nH]c2ccccc12', 'pIC50', 5.01);

I: O=C1NC(=O)[C@@H](c2cn3c4c(cccc24)CCC3)[C@@H]1c1cccs1 (racemic)
II: O=C1NC(=O)[C@@H](c2cn3c4c(cccc24)CCC3)[C@H]1c1c[nH]c2ccccc12
Higher pIC50 between I and II ? Lab note: record the label of whichever item you select.
II
(II: 5.83, I: 5.14)

====

- Test system: PC-3
- measurement-description: Cell viability MTS assay
- Type: cell-based, human
- condition-details: Homo sapiens, PC-3, 72 hours with compound
pIC50: −log10 of the molar value.
metric-name: pIC50

Consider the following illustrative entries.
INSERT INTO results (compound, metric_name, value_measured) VALUES
  ('O=C1NC(=O)C(c2cn3c4c(cccc24)CCC3)C1c1c[nH]c2ccccc12 (single isomer, unassigned; (-))', 'pIC50', 5.89),
  ('O=C1NC(=O)C(c2cn3c4c(cccc24)CCC3)=C1c1c(Cl)cccc1Cl', 'pIC50', 4.08),
  ('O=C1NC(=O)[C@@H](c2cn3c4c(cccc24)CCC3)[C@H]1c1cccc(Cl)c1 (racemic)', 'pIC50', 4.89),
  ('O=C1NC(=O)[C@@H](c2cn3c4c(cccc24)CCC3)[C@H]1c1ccc(F)cc1Cl (racemic)', 'pIC50', 4.94),
  ('O=C1NC(=O)[C@@H](c2cn3c4c(cccc24)CCC3)[C@@H]1c1c[nH]c2ccccc12 (racemic)', 'pIC50', 5.31);

1: O=C1NC(=O)C(c2cn3c4c(cccc24)CCC3)=C1c1cccc2ccccc12
2: O=C1NC(=O)C(c2cn3c4c(cccc24)CCC3)=C1c1ccccc1Br
Dear colleague, could you let me know whether 1 or 2 has the lower recorded pIC50? Thanks. Give the label of your selection.
1
(1: 4.02, 2: 4.65)

====

- Test system: MDA-MB-231
- measurement-description: Cell viability MTS assay
- Type: cell-based, human
- condition-details: Homo sapiens, MDA-MB-231, 72 hours with compound
pIC50: −log10 of the molar value.
metric-name: pIC50

INSERT INTO assay_data (molecule, target_of_assay, metric_name, value_measured) VALUES
  ('O=C(OCN1C(=O)[C@@H](c2c[nH]c3ccccc23)[C@H](c2cn3c4c(cccc24)CCC3)C1=O)c1ccncc1 (racemic)', 'MDA-MB-231', 'pIC50', 5.45);

A: O=C1NC(=O)[C@@H](c2cn3c4c(cccc24)CCC3)[C@@H]1c1ccc(Cl)cc1 (racemic)
B: O=C1NC(=O)[C@@H](c2cn3c4c(cccc24)CCC3)[C@@H]1c1c[nH]c2ccccc12 (racemic)
// select label with min value of measured pIC50 from [ A , B ] Label of pick, please.
A
(A: 4.26, B: 5.48)
